Entry source: PubChem BioAssay (NCI)

# System: IGROV1 ovarian
# Experimental Details: NCI tumour cell line growth inhibition, 48 h
Kindly supply the reported TGI values for the records listed here.

Recorded results for 5 compounds are shown here.
compound=O=C1N=C2N=C(c3ccc(Cl)cc3)N(c3ccc(Cl)cc3)N2Sc2ccccc21 parameter=TGI data_value="> 100 µM"
compound=O=C1C(=O)N(c2cc(Cl)ccc2Cl)C(=O)C(=O)C1c1nc2ccccc2s1 parameter=TGI data_value="> 100 µM"
compound="N#C/C(=C/C=C/c1cccc(Cl)c1)S(=O)c1ccccc1 (stereo not given)" parameter=TGI data_value="1.71 µM"
compound=CCCC(=O)Nc1cc(/C=C/C(=O)N2C[C@@H]3C[C@]34C2=CC(=O)c2[nH]cc(C)c24)n(C)c1 parameter=TGI data_value="25 µM"
compound="COC1CCC(OC)C(c2nc3sccn3c2/C=N/N=C(N)N)C1 (stereo not given)" parameter=TGI data_value="> 100 µM"

Please give TGI, item by item, for the list that follows.
1. COC(=O)c1c(CC(=O)OC(C)C)cc2n(c1=O)Cc1c-2nc2ccccc2c1OC
2. COC(=O)CCC(NC(=S)N/N=C(\C)c1cccs1)C(=O)OC (stereo not given)
3. CCC1OC2(C)CC(C#N)(C#N)C1(C#N)C(=N)O2 (stereo not given)
4. COC(=O)c1c(C(=O)O)c(-c2ccccc2)c(-c2ccccc2)c(-c2ccccc2)c1-c1ccccc1
5. CN1CCC(O)(OC(=O)C(c2ccccc2)C2(O)CCCC2)CC1 (stereo not given)

*A*
> 100 µM
> 100 µM
> 100 µM
> 100 µM
> 100 µM

---

# System: SW-620 colon
# Experimental Details: NCI tumour cell line growth inhibition, 48 h
Parameter: TGI

Consider the worked cases shown below.
compound="CC(C)C(Br)C(=O)NCC(=O)O (centres undefined)" parameter=TGI data_value="> 100 µM"
compound=Cn1cc(-c2csc(-c3ccc(Cl)cc3)n2)c2cccnc21 parameter=TGI data_value="29.3 µM"
compound=CC(=O)/C(=N\N=C(N)N)c1ccccc1 parameter=TGI data_value="> 100 µM"

*Q* // Input: `CCOC(=O)C(Cc1cc(OC)c(CC(C(=O)OCC)C(=O)OCC)cc1OC)C(=O)OCC` . Output its TGI only.
*A* > 100 µM

---

# Tested on: SNB-75 CNS
# Experimental Details: NCI tumour cell line growth inhibition, 48 h
Parameter: TGI

Please review the entries below; each comes with its answer.
compound="C/C(=N/NC(N)=S)C(CN1CCOCC1)C(C1=C(O)c2ccccc2OC1)c1ccccc1 (stereo not given)" data_value="> 100 µM"
compound=O=C(Nc1ccccc1)N1C(c2ccccc2)=N[C@@H](c2ccccc2)[C@@H]1c1ccccc1 data_value="53.5 µM"
compound="COc1cccc(C2C(C#N)=C(N)Oc3cc(OCCCCCC[P+](c4ccccc4)(c4ccccc4)c4ccccc4)ccc32)c1 (stereo not given)" data_value="2.11 µM"
compound=CCOC(=O)c1cnc2n(c1=O)[C@H]1CCCC[C@@H]1N2 data_value="> 100 µM"
compound=C=C(CN1CCc2ccccc2C1)c1ccc(CCCC(=O)Nc2ccccc2N)cc1 data_value="27.7 µM"
compound="O=C(O)c1c(CC(Cc2ccccc2)C(=O)O)ccc2c1CCC2 (stereo not given)" data_value="> 100 µM"

Hi team, please reply with TGI for each item in this list.
1. Cn1cc(-c2csc(-c3ccc(Cl)cc3)n2)c2cccnc21
2. COc1ccc(-c2nc(-c3cnccn3)n(C/C=C/c3ccccc3)n2)cc1
3. CN1Cc2ccccc2C2(COc3ccccc3C2=O)C1 (stereo not given)
4. CC(C)(O)c1cc(Nc2cc(Oc3cn(C4CC4)nc3C3CCOCC3)ccn2)ccn1

*A*
1: 54.3 µM; 2: 51.7 µM; 3: > 100 µM; 4: > 100 µM
